Target: T1, PUF4 RNA-binding domain (Saccharomyces cerevisiae, UniProt P25339 537-888)
T1 sequence: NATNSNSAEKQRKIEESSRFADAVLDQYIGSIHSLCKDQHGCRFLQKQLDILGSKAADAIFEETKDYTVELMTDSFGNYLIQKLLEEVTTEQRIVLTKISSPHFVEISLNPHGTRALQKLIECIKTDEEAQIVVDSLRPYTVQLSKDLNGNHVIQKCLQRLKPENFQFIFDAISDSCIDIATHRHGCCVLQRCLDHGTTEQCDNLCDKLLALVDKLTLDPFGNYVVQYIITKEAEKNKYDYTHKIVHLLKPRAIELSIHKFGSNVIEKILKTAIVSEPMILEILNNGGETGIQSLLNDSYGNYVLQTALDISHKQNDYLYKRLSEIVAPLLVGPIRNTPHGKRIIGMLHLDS
Experiment: Mg; RNA-MaP; 20 mM Na-HEPES pH 7.4, 30 mM KOAc, 0.75 mM MgCl2, 0.1% Tween-20, 5% glycerol, 0.1 mg/mL BSA, 2 mM DTT; 25 C; 0.0125-409.6 nM protein
Details: tags: N-His6-TEV cleaved; C-SNAP kept, Cy3B-labelled; label: tethered on chip by stalled RNA polymerase
pKd: −log10 of the molar value.
pKd of 7 or higher: met. Under 7: not met.

Could you verify whether the entry Ic_S2_P3E.1_K3.1_C3.1_H3.1_A3.1_[T5A]_[A6C]_F3.1_[T7C]_[A8G]_T3.1 (ssRNA) RNA: UUUGAUUAAUAUGAUAUCGUUCUUUCUUGUAACCGUUCUUUCUCGAUAUCAUAUUAAUCUUU shows pKd of no less than 7? not met

Could you verify whether the entry ACAAACAGACACUUAUUACAACAAAC (ssRNA) [Id_ii_S3_P5E.4_K5.3_C5.2_[C-2A]_[T-1G]_H5.3_A5.1_F5.1_T5.2_[T11C]] shows pKd of no less than 7? not met

Could you verify whether the entry Id_ii_S2_P4E.4_K4.3_C4.2_[T-1G]_H4.3_A4.1_F4.1_T4.2_[G10T]_[T11C] (ssRNA) RNA: UUUGAUUAAUAUGAUAUCGUUCUUUCUCGACACUAUUAUCUUCUUUCUCGAUAUCAUAUUAAUCUUU shows pKd of no less than 7? not met

Could you verify whether the entry Ie_S2_P4E.1_K4.1_C4.1_H4.1_A4.1_[+6TC]_F4.1_T4.1 (ssRNA) RNA: UUUGAUUAAUAUGAUAUCGUUCUUUCUUGUAUAUCUUAUUCUUUCUCGAUAUCAUAUUAAUCUUU shows pKd of no less than 7? met

Could you verify whether the entry Id_ii_S4_P3E.4_K3.3_C3.2_[C-2T]_[T-1C]_H3.3_A3.1_F3.1_T3.2_[T9C]_[A10G] (ssRNA) RNA: UUUGACAACUGAUCGUUCUUUCUUCACACUAUACGUUCUUUCUCGAUCAGUUGUCUUU shows pKd of no less than 7? not met

Could you verify whether the entry Id_ii_S2_P5E.2_K5.1_C5.2_[C-2G]_[T-1C]_H5.1_A5.1_F5.1_T5.2_[T11A] (ssRNA) RNA: UUUGAUUAAUAUGAUAUCGUUCUUUCUGCUGUAUUAUUAAAUUCUUUCUCGAUAUCAUAUUAAUCUUU shows pKd of no less than 7? met

Could you verify whether the entry Ic_S4_P5E.1_K5.1_C5.1_H5.1_A5.1_[T5C]_F5.1_[T8A]_[T9C]_[A10C]_T5.1 (ssRNA) RNA: UUUGACAACUGAUCGUUCUUUCUUGUACUAACCUUCUUUCUCGAUCAGUUGUCUUU shows pKd of no less than 7? not met

Could you verify whether the entry Ic_S2_P4E.1_K4.1_C4.1_H4.1_A4.1_[A6C]_F4.1_[T8A]_[A9G]_T4.1 (ssRNA) RNA: UUUGAUUAAUAUGAUAUCGUUCUUUCUUGUAUCUAGUUCUUUCUCGAUAUCAUAUUAAUCUUU shows pKd of no less than 7? met

Could you verify whether the entry Ic_S2_P3E.1_K3.1_C3.1_H3.1_A3.1_[T5C]_F3.1_[T7C]_[A8C]_T3.1 (ssRNA) RNA: UUUGAUUAAUAUGAUAUCGUUCUUUCUUGUACACCUUCUUUCUCGAUAUCAUAUUAAUCUUU shows pKd of no less than 7? met

Could you verify whether the entry Ib_S4_P4E.1_K4.1_C4.1_H4.1_[T1C]_[A4T]_A4.1_F4.1_T4.1 (ssRNA) RNA: UUUGACAACUGAUCGUUCUUUCUCGUUUAUUAUUCUUUCUCGAUCAGUUGUCUUU shows pKd of no less than 7? not met

Could you verify whether the entry Id_ii_S4_P3E.4_K3.3_C3.2_[T-1C]_H3.3_A3.1_F3.1_T3.2_[A10T] (ssRNA) RNA: UUUGACAACUGAUCGUUCUUUCUCCACACUAUAUUUUCUUUCUCGAUCAGUUGUCUUU shows pKd of no less than 7? not met
